Test system: HOP-62 NSCLC
Assay: NCI tumour cell line growth inhibition, 48 h; in the data active = GI50 below about 0.43 µM; inactive = the rest
Entry note: the call must match one of true (1) for active, false (0) for inactive

Compound: Cc1ccc(Nn2c(SCC(=O)Nc3nc(-c4ccccc4)cs3)nc(C)c2C)cc1
Class: false (0)

Compound: COc1ncc(-c2ccc3ncnc(Nc4cccc(Cl)c4)c3c2)cc1NS(C)(=O)=O
Class: false (0)

Compound: CN1CCC(n2cnc(-c3ccc(F)cc3)c2-c2ccnc(Nc3ccccc3)n2)CC1
Class: false (0)

Compound: Clc1ccc2c(NCCNc3nc(N4CCCCC4)nc4ccccc34)ccnc2c1
Class: false (0)

Compound: CC(=O)OCCC/C(=C/c1cc2ccccc2c2ccccc12)[N+](=O)[O-]
Class: false (0)

Turning now to a further compound:
Prompt line: Tell me the recorded outcome of this test for Nc1n[nH]c2cc(F)c([C@@H]3Nc4c(F)cc5[nH]ncc5c4[C@H]4C5CCC(C5)[C@@H]34)cc12 (stereo partly drawn) .
Response line: true (1)
